# ASSAYED_TARGET: HLA-A*02:01 (Homo sapiens, UniProt P04439, D140Y/D185E/D98H/E176V/E277Q/G131W/G231S/I119V/I121R/I166T/I218V/L300P/L318F/N151K/N90K/P208A/P217A/Q86G/Q94H/R138H/R169H/T345S)
# ASSAY_NOTES: MHC binding assay (UV-ligand exchange, ELISA, peptide exchange yield)
# RECORDED_CONDITIONS: binding of HLA-class I restricted peptides to HLA-A*02:01
VALUE_KIND: Peptide exchange (MHC class I binding score, peptide exchange yield)

Please review the entries below; each comes with its answer.
SUBSTANCE | TEST_RESULT
151 (KILQQLVTL; listed as Homo sapiens) [compound 151] | ″+++″ (≥50% = +++)
20 (RMIEYFIDV; listed as Homo sapiens) [compound 20] | ″+++″ (≥50% = +++)
387 (ALFQATAEV; listed as Homo sapiens) [compound 387] | ″++++″ (≥75% = ++++)
218 (SALEELVNV; listed as Homo sapiens) [compound 218] | ″++″ (≥20% = ++)
140 (YMDAPKAAL; listed as Homo sapiens) [compound 140] | ″++″ (≥20% = ++)
491 (GLNDRSDAV; listed as Homo sapiens) [compound 491] | ″++″ (≥20% = ++)

Any idea what its Peptide exchange (MHC class I binding score, peptide exchange yield) is? The substance is 62 (VLLDVSAGQLLM; listed as Homo sapiens) [compound 62]
″++++″ (≥75% = ++++)

Any idea what its Peptide exchange (MHC class I binding score, peptide exchange yield) is? The substance is 64 (YAAPGGLIGV; listed as Homo sapiens) [compound 64]
″++″ (≥20% = ++)

Any idea what its Peptide exchange (MHC class I binding score, peptide exchange yield) is? The substance is 319 (SLEPQIQPV; listed as Homo sapiens) [compound 319]
″++″ (≥20% = ++)
